Listing: z-score of selected molecules
test: DUSP6 inhibitors restoring Erk phosphorylation by chemical complementation, primary imaging in DUSP6-transfected HeLa (AID 609); conditions: HeLa MKP-3 transfected, phospho-Erk imaging KS statistic; measured here: nuclear c-Myc green intensity z-score; at 10 µM; cells stimulated with TPA for 15 min

MOLECULE | z-score
COc1ccc(-c2nnc3sc(-c4c(OC)cccc4OC)nn23)cc1 | -2.13
CCOC(=O)COn1c(=O)c(-c2ccco2)[n+]([O-])c2ccccc21 | 1.19
CC(C)OC(=O)C(C)(C)Oc1ccc(C(=O)c2ccc(Cl)cc2)cc1 | -1.12
CN(C)c1ccc(C=NCCC2(O)CCOC(C)(C)C2)cc1 (stereo unspecified) | -1.17
CC(=O)O[C@H]1C(=O)[C@]2(C)[C@H]([C@H](OC(=O)c3ccccc3)[C@]3(O)C[C@H](OC(=O)[C@H](O)[C@@H](NC(=O)c4ccccc4)c4ccccc4)C(C)=C1C3(C)C)[C@]1(OC(C)=O)CO[C@@H]1C[C@@H]2O | 0.25
Cn1c(=O)c2c(nc(SCCN3CCCCC3)n2Cc2ccc(Cl)cc2)n(C)c1=O | -0.662
COC(=O)CNC(=O)c1c(C)cc(=O)oc1C | -0.128
CCOC(=O)c1c(NC(=O)CCN2CCOCC2)sc2c1CC(C)(C)OC2 | 1.14
Cc1ccc2[nH]c3c(N4CCN(Cc5ccccc5)CC4)ncnc3c2c1 | 0.553
OCCN(CCO)c1ncnc2c1sc1nc(N3CCOCC3)c3c(c12)CCCC3 | -0.458
CCC12CN3CC(CC)(CN(C1)C3c1c(O)ccc3ccccc13)C2=O (stereo unspecified) | 0.162
Cc1ccc(C2/C(=C(/O)c3ccc(OC(C)C)cc3)C(=O)C(=O)N2CCN2CCOCC2)cc1 (stereo unspecified) | 1.31
CC(=O)OCC(=O)[C@@]1(O)CC[C@H]2[C@@H]3CCC4=CC(=O)CC[C@]4(C)[C@H]3C(=O)C[C@@]21C | -1.69
CCCN(CCC)S(=O)(=O)c1ccc(C(=O)O)cc1 | 0.261
COC(=O)CSc1nc(C)c(C(C)=O)cc1C#N | -1.01
Cc1ccnc(N2CCN(c3cc(C)c(C#N)c4nc5ccccc5n34)CC2)c1 | 0.0486
COc1cccc(C2=CC(c3ccccc3)n3ncnc3N2)c1 (stereo unspecified) | -0.0591
N[C@@H](C(=O)N[C@@H]1C(=O)N2C(C(=O)O)=C(Cl)CS[C@H]12)c1ccccc1 | -0.293
CNC(=O)c1cc2ccccc2o1 | -0.443
COc1ccc(OC)c(C2/C(=C(/O)c3cnn(-c4ccccc4)c3C)C(=O)C(=O)N2CCN(C)C)c1 (stereo unspecified) | 0.604
CN(C)CCOc1ccccc1Cc1ccccc1 | 1.74
Cc1nc(Nc2ncc3c(n2)CCCC3=O)nc2ccccc12 | -0.989
C#CCSC1=C(C#N)C(c2cccs2)C(C(=O)OCC)=C(C)N1 (stereo unspecified) | 0.591
CCOC(=O)C1CCCN(c2nc3ccccc3nc2C(C#N)C(=O)OC(C)C)C1 (stereo unspecified) | 0.486
C[C@]12CC[C@H]3[C@@H](CCC4=CC(=O)CC[C@@]43C)[C@@H]1CC[C@@H]2C(=O)CO | -1.57
CC(C)(C)NCC(=O)c1c[nH]c2ccccc12 | 1.42
CN1C2C=C3C(C#N)=C(N)C(C#N)(C#N)[C@@H](c4ccc(Cl)cc4)[C@@H]3C1CC2 (stereo partly specified) | -0.782
Cc1nc2oc(C(=O)c3ccc(Br)cc3)c(N)c2c2c1COC(C)(C)C2 | -0.803
CC1(C)CC(=O)C2=C(C1)N(Cc1ccco1)C(=O)C2(NC(=O)c1cccnc1)C(F)(F)F (stereo unspecified) | -1.13
Cc1cc(C(F)(F)F)nn1CC(=O)NCC1CCCO1 (stereo unspecified) | 0.653
COc1cccc(N2CCN(C3CC(=O)N(c4cccc(Cl)c4)C3=O)CC2)c1 (stereo unspecified) | 1.47
CC1=C(/C=C/C(C)=C/C=C/C(C)=C/C(=O)O)C(C)(C)CCC1 | 1.94
CCOC(=O)C(CC(=O)O)N1CCCCC1 (stereo unspecified) | 1.55
COc1ccc(C2CNC(=O)C2)cc1OC1CCCC1 (stereo unspecified) | -0.0715
CCOC(=O)C1=C(CSc2nc3c(cc2C#N)CCC3)OC(N)=C(C#N)C1c1ccccc1 (stereo unspecified) | 0.0665
CSC(=Nc1ccccc1)C1=C(O)COC1=O | -0.593
CCC(=O)O[C@@H]1CC(=O)O[C@H](C)CC=CC=C[C@@H](O)[C@H](C)C[C@H](CC=O)[C@H](O[C@H]2O[C@H](C)[C@@H](O[C@H]3C[C@@](C)(O)[C@@H](OC(=O)CC)[C@H](C)O3)[C@H](N(C)C)[C@H]2O)[C@H]1OC | -0.404
N#CCSc1nc2sc3c(c2c(=O)n1C1CCCCC1)CCCC3 | 0.708
Clc1ccc(-c2nnc3sc(Cc4cccs4)nn23)c(Cl)c1 | 0.587
Oc1ccc(/C=C/c2cc(O)cc(O)c2)cc1 | -0.867
CCCCCC#CCC#CCC#CCC#CCCCC(=O)O | 0.757

Values were extracted from PubChem BioAssay.
